Reference source for all entries: patent US20170305943A1

Test system: Clostridium difficile (Isolate ID ATCC 9689)
Assay: Bacterial Assay: Determination of Antibacterial Activity (MIC, broth microdilution or agar dilution)
Format: cell-based
Conditions: Clostridioides difficile, ATCC9689, 48 h, read-out: C. difficile MIC Activity Range
Procedure: Bacterial Assay: Determination of Antibacterial Activity Compounds of the invention were tested for antimicrobial activity by susceptibility testing in liquid or on solid media. […] Briefly MICs were determined by visible inspection after 48 hours of growth in the presence of compounds, cultures were grown at 37° C. in anaerobic gas packs using reinforced clostridial medium supplemented with 0.1% defribrinated horse blood. […]
measuredMetric: MIC

Some solved cases for reference:
• Cc1noc(CNC(=O)OCC(Oc2ccc(F)c(C(N)=O)c2F)c2nc(-c3ccc(C(F)(F)F)cc3)c(Br)o2)n1 (centres unmarked) [Compound 68] = 1 to 4 µg/mL
• NC(=O)c1c(F)ccc(OCCOCCOc2ccc(Cl)cc2)c1F [Compound 136] = 1 to 4 µg/mL
• NC(=O)c1c(F)ccc(NCCCCOc2ccc(C(F)(F)F)cn2)c1F [Compound 179] = 4 to 16 µg/mL
• Cc1cnccc1CNC(=O)OCC(Oc1ccc(F)c(C(N)=O)c1F)c1nc(-c2ccc(C(F)(F)F)cc2)c(Br)o1 (centres unmarked) [Compound 91] = < 1.01 µg/mL
• NC(=O)c1c(F)ccc(OC(CNC(=O)OCc2ccccc2)c2nc(-c3ccc(C(F)(F)F)cc3)c(Br)o2)c1F (racemic) [Compound 93] = 1 to 4 µg/mL

Give the measured MIC of CCCCCCCCCOc1ccc(F)c(C(N)=O)c1Cl [Compound 5, 2-chloro-6-fluoro-3-(nonyloxy)benzamide] . < 1.01 µg/mL

Give the measured MIC of NC(=O)c1c(F)ccc(OCCCCOc2cccc(C(F)(F)F)c2)c1F [Compound 165] . 1 to 4 µg/mL

Give the measured MIC of COc1ccc(-c2csc(COc3ccc(F)c(C(N)=O)c3F)n2)cc1 [Compound 10] . 1 to 4 µg/mL
